Data origin, for the record: patent US20150322082A1

Assay: Pharmacokinetic assay in rats (Rat IV and PO PK)
Format: in vivo
Conditions: male, Crl:CD (SD), plasma, 2 mg/kg, absolute oral bioavailability from oral and intravenous AUC0-inf, normalized for dose, read-out: Rat % F
endpoint label: bioavailability (%)

{"columns": ["smiles record", "bioavailability (%)"],
 "data": [
  ["Cc1ccc(-n2ccc3cc(N4CCOc5ncnc(N)c5C4=O)ccc32)cn1", 65.6]
]}

[a] Nc1ncnc2c1C(=O)N(c1ccc3c(ccn3-c3ccc(C(F)(F)F)cn3)c1)CCO2
[b] CC(C)(O)c1ccc(-n2ccc3cc(N4CCOc5ncnc(N)c5C4=O)ccc32)cn1
[c] Nc1ncnc2c1C(=O)N(c1ccc3c(ccn3-c3ccc(C(F)(F)F)nc3)c1)CCO2
[d] Cc1cnc(-n2ccc3cc(N4CCOc5ncnc(N)c5C4=O)cc(C4CC4)c32)nc1
Inquiry: Rank entries according to their bioavailability, from the largest number down. List the labels, following the order given in the request.
Reply text: b, d, c, a

---

Target chain: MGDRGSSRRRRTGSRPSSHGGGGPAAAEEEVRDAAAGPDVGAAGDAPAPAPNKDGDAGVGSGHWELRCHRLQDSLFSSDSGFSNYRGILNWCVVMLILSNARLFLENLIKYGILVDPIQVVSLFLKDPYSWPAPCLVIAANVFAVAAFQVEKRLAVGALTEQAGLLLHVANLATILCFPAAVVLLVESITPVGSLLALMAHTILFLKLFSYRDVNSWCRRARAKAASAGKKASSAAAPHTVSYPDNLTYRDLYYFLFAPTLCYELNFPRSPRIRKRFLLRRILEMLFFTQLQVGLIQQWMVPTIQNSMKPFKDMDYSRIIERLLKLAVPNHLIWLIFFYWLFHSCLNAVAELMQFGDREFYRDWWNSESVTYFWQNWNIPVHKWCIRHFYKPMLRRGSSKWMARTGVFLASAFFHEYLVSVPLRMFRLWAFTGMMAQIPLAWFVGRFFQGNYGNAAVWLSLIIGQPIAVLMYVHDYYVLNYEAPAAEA
endpoint label: pIC50
Convention used: pIC50 is expressed as -log10 of the molar concentration.

Inquiry: Given the entry Cc1cnc(-n2ccc3cc(N4CCOc5ncnc(N)c5C4=O)cc(C4CC4)c32)nc1 [Example 37] , report its measured pIC50.
Reply text: 7.93

---

Test: Pharmacokinetic assay in rats (Rat IV and PO PK)
Format: in vivo
Details: male, Crl:CD (SD), oral gavage, target dose 2 mg/kg, plasma, read-out: Rat PO AUC
endpoint label: AUC (ng·h/mL)

{"columns": ["smiles record", "unit annotation", "recorded number"],
 "data": [
  ["Nc1ncnc2c1C(=O)N(c1ccc3c(ccn3-c3ccc(C(F)(F)F)cn3)c1)CCO2", "ng·h/mL", 1780],
  ["CC(C)(O)c1ccc(-n2ccc3cc(N4CCOc5ncnc(N)c5C4=O)ccc32)cn1", "ng·h/mL", 4020],
  ["Nc1ncnc2c1C(=O)N(c1ccc3c(ccn3-c3ccc(C(F)(F)F)nc3)c1)CCO2", "ng·h/mL", 3860]
]}

[A] Cc1cnc(-n2ccc3cc(N4CCOc5ncnc(N)c5C4=O)cc(C4CC4)c32)nc1
[B] Cc1ccc(-n2ccc3cc(N4CCOc5ncnc(N)c5C4=O)ccc32)cn1
Inquiry: Look at A and B . Which one has the lower recorded AUC number? Reply briefly: the label of your chosen item.
Reply text: B
(B: 2490 ng·h/mL, A: 11600 ng·h/mL)
